Assay Name: chemical genetic growth profiling, strain panel (AID 1159580);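 note: tested at 20 µM; growth read once vehicle control cultures reached saturation at 30 °C; 1 = growth at the plate median or of vehicle wells; lower values mean less growth of the strain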
Run Conditions: S. cerevisiae deletion strains, growth OD, locus YEL061C, strain CIN8 (second series), active compounds read low
The campaign covered roughly 5,500 compounds. About 2,000 (36%) were called active. Roughly 18% stayed inconclusive and do not appear here. This is one part of the list.
Reported Endpoint: normalized growth
Quick one: just the number, no unit, thanks!

Input: Entry `Oc1cccc2cccnc12` has what normalized growth?
Output: 0.0606

Input: Entry `Cn1c(=O)[nH]c2nc[nH]c2c1=O` has what normalized growth?
Output: 0.995

Input: Entry CN1CCCCC1c1ccc(-c2cccnc2)nc1 (centres undefined) has what normalized growth?
Output: 0.97

Input: Entry CC(=CC1CCC(C)C2C1=C(C)CC2O)C(=O)O (centres undefined) has what normalized growth?
Output: 1.02

----------
Assay Name: chemical genetic growth profiling, strain panel (AID 1159580);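 note: tested at 20 µM; growth read once vehicle control cultures reached saturation at 30 °C; 1 = growth at the plate median or of vehicle wells; lower values mean less growth of the strain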
Run Conditions: S. cerevisiae deletion strains, growth OD, locus YDR363W, strain ESC2
Out of some 5,500 compounds screened, about 2,000 (36%) were called active. Roughly 18% stayed inconclusive and do not appear here. No stated cut-off is given here; in the data, active means normalized growth mostly below about 0.91 (no sharp cut-off); inconclusive means no clear call, values can overlap the other calls; inactive means mostly above about 0.92. The list shows a part of the results.
API: response.call in true (1) for active, false (0) for inactive

Input: State the result this test recorded for `C=CC[C@H](N)C(=O)O` .
Output: false (0)

Input: State the result this test recorded for NC(CCP(=O)(O)O)C(=O)O (stereo not drawn) .
Output: false (0)

Input: State the result this test recorded for `Cc1ccc2c(c1)C(N1CCN(C)CC1)=Nc1cccnc1N2` .
Output: false (0)

Input: State the result this test recorded for C[N+]1(C)C2CCC1CC(OC(=O)C(CO)c1ccccc1)C2 (stereo not drawn) .
Output: false (0)

Input: State the result this test recorded for NC1CCc2cc(O)c(O)cc2C1 (stereo not drawn) .
Output: false (0)

Input: State the result this test recorded for `COc1cc2ncnc(Nc3cccc(Cl)c3)c2cc1OC` .
Output: false (0)

Input: State the result this test recorded for `COC(=O)[C@H](NC(=O)c1cc(-c2ccccc2)nc2ccccc12)c1ccccc1` .
Output: false (0)

Input: State the result this test recorded for CCCN1CCCC2Cc3[nH]ncc3CC21 (stereo not drawn) .
Output: false (0)

Input: State the result this test recorded for `COc1cc(Cc2cnc(N)nc2N)cc(OC)c1OC` .
Output: false (0)

Input: State the result this test recorded for `COC(=O)c1c(-c2cc(OC)c(OC)c(OC)c2)c2ccnc(OCc3ncccn3)c2c(=O)n1Cc1ccnc(C)c1` .
Output: false (0)

Input: State the result this test recorded for `Cc1cc(O)c2c(c1)C(=O)c1cc(O)cc(O)c1C2=O` .
Output: false (0)

Input: State the result this test recorded for `O=C(O)c1cccnc1C(=O)O` .
Output: false (0)

Input: State the result this test recorded for CCCCC/C=C\CC(O)/C=C/c1cccc(CC(O)CCCCO)n1 (stereo not drawn) .
Output: false (0)

Input: State the result this test recorded for `c1cnc2c(c1)ccc1cccnc12` .
Output: true (1)

Input: State the result this test recorded for CCC1(C2=NCCN2)Cc2ccccc2O1 (stereo not drawn) .
Output: false (0)

Input: State the result this test recorded for Oc1cc2c(cc1O)C(c1ccccc1)CNCC2 (stereo not drawn) .
Output: false (0)

Input: State the result this test recorded for CNCCC(Oc1ccccc1OC)c1ccccc1 (stereo not drawn) .
Output: false (0)

Input: State the result this test recorded for `O=C(O)CC[N+](=O)[O-]` .
Output: false (0)

Input: State the result this test recorded for `COC1=C(OC)C(=O)c2ccccc2C1=O` .
Output: true (1)

Input: State the result this test recorded for COc1cc([C@@H]2c3cc4c(cc3[C@H](O)C3COC(=O)[C@@H]32)OCO4)cc(OC)c1OC (stereo partly drawn) .
Output: false (0)

Input: State the result this test recorded for `CNC(=O)c1cc2c(cn1)[nH]c1ccccc12` .
Output: false (0)

Input: State the result this test recorded for NC1CONC1=O (stereo not drawn) .
Output: false (0)

Input: State the result this test recorded for `CCCn1c(=O)c2c(ncn2C)n(CCC)c1=O` .
Output: false (0)

Input: State the result this test recorded for COc1ccc2c(c1)C13CCCCC1C(C2)N(C)CC3 (stereo not drawn) .
Output: false (0)

Input: State the result this test recorded for `O=C(/C=C/c1ccc(O)cc1)c1ccc(O)cc1O` .
Output: false (0)

Input: State the result this test recorded for `CC(=O)CCCCn1c(=O)c2c(ncn2C)n(C)c1=O` .
Output: false (0)

Input: State the result this test recorded for `NC(N)=NCc1cccc(I)c1` .
Output: false (0)

Input: State the result this test recorded for `CCn1c(=O)[nH]c2cc(Cl)c(Cl)cc21` .
Output: false (0)

Input: State the result this test recorded for `Cn1c(=O)c2c(ncn2C)n(C)c1=O` .
Output: false (0)

Input: State the result this test recorded for `O=Nc1c(-c2c(O)[nH]c3ccccc23)[nH]c2ccccc12` .
Output: false (0)

Input: State the result this test recorded for `C[N+](C)(C)CC#CCOC(=O)Nc1cccc(Cl)c1` .
Output: false (0)

Input: State the result this test recorded for `O=c1[nH]ccc2c(O)cccc12` .
Output: false (0)

Input: State the result this test recorded for `CC(C)NP(=O)(NC(C)C)OP(=O)(NC(C)C)NC(C)C` .
Output: false (0)

----------
Assay Name: chemical genetic growth profiling, strain panel (AID 1159580);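 note: tested at 20 µM; growth read once vehicle control cultures reached saturation at 30 °C; 1 = growth at the plate median or of vehicle wells; lower values mean less growth of the strain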
Run Conditions: S. cerevisiae deletion strains, growth OD, locus YMR129W
In all, about 5,500 compounds went through this assay and about 2,000 (36%) were called active. Inconclusive results (about 18%) are left out. No stated cut-off is given here; in the data, active means normalized growth mostly below about 0.91 (no sharp cut-off); inconclusive means no clear call, values can overlap the other calls; inactive means mostly above about 0.92. The list shows a part of the results.
API: response.call in 1.0 for active, 0.0 for inactive

Input: State the result this test recorded for `CC(=O)c1ccc[nH]1` .
Output: 0.0

Input: State the result this test recorded for `O=c1c(O)cccc2cc(O)c(O)c(O)c12` .
Output: 1.0

Input: State the result this test recorded for CC(=CC1CCC(C)C2CCC(C)=C12)C(=O)O (stereo not drawn) .
Output: 0.0

Input: State the result this test recorded for CC(=O)OC1CCC2(O)CC1(C)CCC1C2CC1(C)C (stereo not drawn) .
Output: 0.0

Input: State the result this test recorded for `CCCCCCCCCCCCCCCC(=O)OC[C@H](NC(=O)C(Cl)Cl)[C@H](O)c1ccc([N+](=O)[O-])cc1` .
Output: 1.0

Input: State the result this test recorded for `O=C1c2cccc(O)c2C(=O)c2c(O)cccc21` .
Output: 0.0

Input: State the result this test recorded for `O=C(N[C@@H](CO)[C@H](O)c1ccc([N+](=O)[O-])cc1)C(Cl)Cl` .
Output: 0.0

Input: State the result this test recorded for COC(=O)C[C@H]1C(C)(C)[C@@H](OC(C)=O)[C@@H]2CC3=C4CC(=O)O[C@@H](c5ccoc5)[C@]4(C)CCC3[C@@]1(C)C2=O (stereo partly drawn) .
Output: 0.0

Input: State the result this test recorded for `NC(=NCCCCCCN=C(N)N=C(N)Nc1ccc(Cl)cc1)N=C(N)Nc1ccc(Cl)cc1` .
Output: 1.0

Input: State the result this test recorded for Cc1cc2nc3c(=O)[nH]c(=O)nc-3n(CC(O)C(O)C(O)CO)c2cc1C (stereo not drawn) .
Output: 0.0

Input: State the result this test recorded for CC(=O)O[C@H]1CC2CCC3C(CC[C@@]4(C)C3C[C@H]([N+]3(C)CCCCC3)[C@@H]4OC(C)=O)[C@@]2(C)C[C@@H]1N1CCCCC1 (stereo partly drawn) .
Output: 0.0

Input: State the result this test recorded for `O=C(O)c1cc(=O)c2ccccc2[nH]1` .
Output: 0.0

Input: State the result this test recorded for COCC1=C(C(=O)OC(C)OC(=O)OC(C)C)N2C(=O)[C@@H](NC(=O)/C(=N\OC)c3csc(N)n3)[C@H]2SC1 (stereo partly drawn) .
Output: 0.0

----------
Assay Name: chemical genetic growth profiling, strain panel (AID 1159580);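 note: tested at 20 µM; growth read once vehicle control cultures reached saturation at 30 °C; 1 = growth at the plate median or of vehicle wells; lower values mean less growth of the strain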
Run Conditions: S. cerevisiae deletion strains, growth OD, locus YOL136C, strain PFK27, active compounds read low
Screen size: about 5,500 compounds; about 2,000 (36%) were called active. About 18% were inconclusive and are not listed. This is one part of the list.
For each of the molecules below, state its normalized growth.

Input: Entry `O=[N+]([O-])c1ccc(Sc2ccccc2)c([N+](=O)[O-])c1` has what normalized growth?
Output: 0.65 (active)

Input: Entry `O=[N+]([O-])c1ccc(NCc2ccc(Cl)c(Cl)c2)nc1` has what normalized growth?
Output: 0.864 (inactive)

Input: Entry `Cc1csc2ncnc(N3CCN(C(=O)Nc4ccc(SC(F)(F)F)cc4)CC3)c12` has what normalized growth?
Output: 0.869 (inactive)

Input: Entry `Cn1ncc(-c2nc(-c3ccc(Cl)cc3)cs2)c1N` has what normalized growth?
Output: 0.939 (inactive)

Input: Entry `COC(=O)c1cc(I)c(OC(C)=O)c(I)c1` has what normalized growth?
Output: 0.926 (inactive)

Input: Entry `Cc1csc2c(N3CCN(C(=S)Nc4ccc(C(F)(F)F)cc4)CC3)ncnc12` has what normalized growth?
Output: 0.922 (inactive)
